- Test system: NCI-H322M
- assay: relative viability (nuclei count vs DMSO), 5 days (fraction); higher = more cells survive
- reported-conditions: first compound 0.03162 µM
experimental-readout: relative viability
Reply with just the number.

The following molecules have reported results that may help.
• Cc1cn(-c2cc(NC(=O)c3ccc(C)c(Nc4nccc(-c5cccnc5)n4)c3)cc(C(F)(F)F)c2)cn1 [Nilotinib] + CS(=O)(=O)N1CCN(Cc2cc3nc(-c4cccc5[nH]ncc45)nc(N4CCOCC4)c3s2)CC1 [Pictilisib] (partner 1 µM) = 0.529
• Cc1cn(-c2cc(NC(=O)c3ccc(C)c(Nc4nccc(-c5cccnc5)n4)c3)cc(C(F)(F)F)c2)cn1 [Nilotinib] + NC(=O)Nc1cc(-c2cccc(F)c2)sc1C(=O)N[C@H]1CCCNC1 [AZD7762] (partner 0.2 µM) = 0.41
• Cc1cn(-c2cc(NC(=O)c3ccc(C)c(Nc4nccc(-c5cccnc5)n4)c3)cc(C(F)(F)F)c2)cn1 [Nilotinib] + Cc1nc(Nc2ncc(C(=O)Nc3c(C)cccc3Cl)s2)cc(N2CCN(CCO)CC2)n1 [Dasatinib] (partner 0.075 µM) = 0.282
• Cc1cn(-c2cc(NC(=O)c3ccc(C)c(Nc4nccc(-c5cccnc5)n4)c3)cc(C(F)(F)F)c2)cn1 [Nilotinib] + C[C@@H](Oc1cc(-c2cnn(C3CCNCC3)c2)cnc1N)c1c(Cl)ccc(F)c1Cl [Crizotinib] (partner 1 µM) = 0.727

Next molecule, please.
Enquiry: Provide relative viability value for the following molecule: Cc1cn(-c2cc(NC(=O)c3ccc(C)c(Nc4nccc(-c5cccnc5)n4)c3)cc(C(F)(F)F)c2)cn1 [Nilotinib] + CC1(C)CCC(c2ccc(Cl)cc2)=C(CN2CCN(c3ccc(C(=O)NS(=O)(=O)c4ccc(N[C@H](CCN5CCOCC5)CSc5ccccc5)c(S(=O)(=O)C(F)(F)F)c4)cc3)CC2)C1 [Navitoclax] (partner 0.5 µM)
Return: 0.954
